Listed here: items and their measured MIC.
- Test system: Streptococcus mutans
- TEST: MIC against oral microorganisms via broth dilution
- Assay type: cell-based
- MEASUREMENT_SETUP: ATCC33402, broth dilution 0.94-15 ppm, 24 h aerobically with 10% CO2, ATCC 33402, read-out: MIC Streptococcus mutans
Report the value in µg/mL with no unit label.

// solved cases for MIC follow
- STRUCTURE_NOTATION: "CN(C)CCCOc1ccccc1/C=C/c1ccc(/C=C/c2ccccc2OCCCN(C)C)cc1"
  RESULT_VALUE: 3.8
- STRUCTURE_NOTATION: "COc1cccc(/C=C/c2ccc(/C=C/c3cccc(OC)c3OCCCN(C)C)cc2)c1OCCCN(C)C"
  RESULT_VALUE: 15
- STRUCTURE_NOTATION: "CCN(CC)CCOc1ccccc1/C=C/c1ccc(/C=C/c2ccccc2OCCN(CC)CC)cc1"
  RESULT_VALUE: 7.5
- STRUCTURE_NOTATION: "Cc1ccc(/C=C/c2ccc(/C=C/c3cccc(OCCCN(C)C)c3)cc2)c(OCCN(C)C)c1"
  RESULT_VALUE: 3.8
- STRUCTURE_NOTATION: "CN(C)CCSc1ccccc1/C=C/c1ccc(/C=C/c2ccccc2SCCN(C)C)cc1"
  RESULT_VALUE: 7.5

The record that follows has no MIC shown yet.
So, `Cc1ccc(/C=C/c2ccc(/C=C/c3ccc(C)c(OCCCN(C)C)c3)cc2)cc1OCCCN(C)C` ? Its MIC was 7.5
